Provide the recorded K d for the entries that follow.
system: pre-let-7a-1 (RNA, miRNA) UUAGGGUCACACCCACCACUGGGAGAUAA; assay: microscale thermophoresis; conditions: Na+ (185 mM NaCl, 8 mM Na2HPO4), no Mg2+; 1 mM EDTA, 0.05% Tween-20; 5 nM RNA
// note: answer is a bare numeric in µM

Incoming: So what does the record say about K d for CN1CCN(c2ccc(C(=O)Nc3n[nH]c4ccc(Cc5cc(F)cc(F)c5)cc34)c(NC3CCOCC3)c2)CC1 ?
Outgoing: 5.0

Incoming: GET /values?readout=K d&item= CCc1nc(C(N)=O)c(Nc2ccc(N3CCC(N4CCN(C)CC4)CC3)c(OC)c2)nc1NC1CCOCC1
Outgoing: 29.4

Incoming: For the compound shown here, Cn1cnc2c(F)c(Nc3ccc(Br)cc3Cl)c(C(=O)NOCCO)cc21 , give the reported K d.
Outgoing: 217

Incoming: # get_value(readout='K d', item= N#CC[C@H](C1CCCC1)n1cc(-c2ncnc3[nH]ccc23)cn1 )
Outgoing: 82.4
